- experiment: Selectivity index, ratio of CC50 for MDCK cells to IC50 for influenza A virus infected in MDCK cells
- Type: toxicity, cell-based
- experimental setup: dog, read-out: Ratio CC50/IC50
observation type: selectivity ratio

>>> result("CC(=O)Nc1ccc2oc(-c3ccnc(C(=O)N4CCN([C@@H](c5ccc(F)cc5)c5nnn(C(C)C)n5)CC4)c3)nc2c1")
"> 39"
>>> result("CCC(CC)n1nnc([C@@H](c2ccc(F)cc2)N2CCN(C(=O)c3cc(-c4nc5cc(NC(C)=O)ccc5o4)ccn3)CC2)n1")
"> 1110"
>>> result("CCCCn1nnc([C@@H](c2ccc(F)cc2)N2CCN(C(=O)c3cc(-c4nc5cc(NC(C)=O)ccc5o4)ccn3)CC2)n1")
"> 714"
>>> result("C=Cn1nnc([C@H](c2ccc(F)cc2)N2CCN(C(=O)c3cc(-c4nc5cc(NC(C)=O)ccc5o4)ccn3)CC2)n1")
"> 34"
>>> result("CCCCn1nnc([C@H](c2ccc(F)cc2)N2CCN(C(=O)c3cc(-c4nc5cc(NC(C)=O)ccc5o4)ccn3)CC2)n1")
"> 83"
>>> result("CC(=O)Nc1ccc2oc(-c3ccnc(C(=O)N4CCN([C@H](c5ccc(F)cc5)c5nnn(C6CCCC6)n5)CC4)c3)nc2c1")
792
>>> result("CC(=O)Nc1ccc2oc(-c3ccnc(C(=O)N4CCN([C@@H](c5ccc(F)cc5)c5nnn(CCC(C)C)n5)CC4)c3)nc2c1")
"> 39"

* * *

- experiment: Elimination half life in Balb/c mouse at 25 mg/kg, po administered as single dose
- Assay type: ADME, organism-based
- experimental setup: in vivo, read-out: beta t1/2 (converted)
observation type: half-life (h)

>>> numeric_result("CC(=O)Nc1ccc2oc(-c3ccnc(C(=O)N4CCN([C@H](c5ccc(F)cc5)c5nnn(C(C)C)n5)CC4)c3)nc2c1")
1.25
>>> numeric_result("CC(=O)Nc1ccc2oc(-c3ccnc(C(=O)N4CCN([C@H](c5ccc(F)cc5)c5nnn(C6CCCC6)n5)CC4)c3)nc2c1")
0.442
>>> numeric_result("C=Cn1nnc([C@@H](c2ccc(F)cc2)N2CCN(C(=O)c3cc(-c4nc5cc(NC(C)=O)ccc5o4)ccn3)CC2)n1")
1.57
